Kindly supply the reported hemolysis at 1 h, 128 ug/ml values for the records listed here.
assay: Hemolytic activity in human erythrocytes at 128 ug/ml measured after 1 hr by absorbance based assay relative to control; format: toxicity, cell-based, Erythrocyte; details: at 128 µg/mL, read-out: Activity
Number first, unit second.

The following compounds have reported results that may help.
INPUT_SMILES	hemolysis at 1 h, 128 ug/ml
CC[C@@H](NC(=O)[C@@H](O)[C@@H](C)CC)C(=O)N[C@@H](CC(C)C)C(=O)N[C@H](CCCN)C(=O)N[C@H](C(=O)N[C@H](C(=O)N[C@H](C(=O)N[C@H](CCCCN)C(=O)N[C@H](C(=O)N[C@H](C(=O)N[C@@H](CCCCN)C(=O)N[C@H](Cc1ccc(O)cc1)C(=O)N[C@@H](CC(C)C)C(=O)N[C@H](CO)C(C)C)C(C)C)C(C)C)C(C)C)C(C)C)C(C)C	1.2%
C/C=C(/NC(=O)[C@@H](O)[C@@H](C)CC)C(=O)N[C@@H](CC(C)C)C(=O)N[C@H](CCCN)C(=O)N[C@H](C(=O)N[C@H](C(=O)N[C@H](C(=O)N[C@H](CCCCN)C(=O)N[C@H](C(=O)N[C@H](C(=O)N[C@@H](CCCCN)C(=O)N[C@H](Cc1ccc(O)cc1)C(=O)N[C@@H](CC(C)C)C(=O)N[C@H](CO)C(C)C)C(C)C)[C@@H](C)CC)C(C)C)[C@@H](C)CC)[C@@H](C)CC	55%
CC[C@H](NC(=O)[C@@H](O)[C@@H](C)CC)C(=O)N[C@@H](CC(C)C)C(=O)N[C@H](CCCN)C(=O)N[C@H](C(=O)N[C@H](C(=O)N[C@H](C(=O)N[C@H](CCCCN)C(=O)N[C@H](C(=O)N[C@H](C(=O)N[C@@H](CCCCN)C(=O)N[C@H](Cc1ccc(O)cc1)C(=O)N[C@@H](CC(C)C)C(=O)N[C@H](C(N)=O)C(C)C)C(C)C)C(C)C)C(C)C)[C@@H](C)CC)[C@@H](C)CC	23.3%

// input: 2 compounds below; output: hemolysis at 1 h, 128 ug/ml for each
1. CC[C@H](C)[C@H](O)C(=O)N[C@H](C(=O)N[C@@H](CC(C)C)C(=O)N[C@H](CCCN)C(=O)N[C@H](C(=O)N[C@H](C(=O)N[C@H](C(=O)N[C@H](CCCCN)C(=O)N[C@H](C(=O)N[C@H](C(=O)N[C@@H](CCCCN)C(=O)N[C@H](Cc1ccc(O)cc1)C(=O)N[C@@H](CC(C)C)C(=O)N[C@H](CO)C(C)C)C(C)C)C(C)C)C(C)C)[C@@H](C)CC)[C@@H](C)CC)[C@@H](C)O
2. C/C=C(/NC(=O)[C@@H](O)[C@@H](C)CC)C(=O)N[C@@H](CC(C)C)C(=O)N[C@H](CCCN)C(=O)N[C@H](C(=O)N[C@H](C(=O)N[C@H](C(=O)N[C@H](CCCCN)C(=O)N[C@H](C(=O)N[C@H](C(=O)N[C@@H](CCCCN)C(=O)N[C@H](Cc1ccc(O)cc1)C(=O)N[C@@H](CC(C)C)C(=O)N[C@H](CO)C(C)C)C(C)C)C(C)C)C(C)C)C(C)C)C(C)C

RESULT:
1.2%
0.65%
